# Test system: NCI-H226
# ASSAY_PROTOCOL: NCI tumour cell line growth inhibition, 48 h
Active and inactive are the calls of the source. Cut-off read from the data, not from the text of the source: active = GI50 up to about 1.1 µM and inactive = higher.
OBSERVABLE: GI50

Worked cases, answers included:
- CC(NC(=O)/C(=C/c1ccccc1)NC(=O)c1ccccc1)C(=O)O (stereo not given): 26.1 µM (inactive)
- O=S(=O)(N=S(c1ccccc1)c1ccccc1)c1ccccc1: > 100 µM (inactive)
- O=C1CC2CC(CC3(CO3)C2)C1F (stereo not given): > 100 µM (inactive)
- c1ccc(OC2=NC3=S(S2)SC(Oc2ccccc2)=N3)cc1: 24.3 µM (inactive)

Now look at this one.
Field GI50 (entry `COC1=CC(=O)C2=C(C1=O)[C@H]1CC[C@]3(C)C(=O)CC[C@H]3[C@@H]1CC2` ) reads 22.1 µM (inactive)

====

Some compounds, each annotated with its measured GI50.
# System: EKVX
# ASSAY_PROTOCOL: NCI tumour cell line growth inhibition, 48 h
Calls of active or inactive are those of the source. Rule as the data show it: active = GI50 up to about 1.1 µM and inactive = higher.

- N#Cc1c(N)nc(Nc2cccc3ccccc23)c(C#N)c1C#N: > 10 µM (inactive)
- O=C1C(N2CCN(CCOCCO)CC2)=C(Cl)C(=O)c2ncccc21: 19.6 µM (inactive)
- O=C1C(c2ccccc2)=[N+]([O-])c2ccccc21: 15.1 µM (inactive)
- CCOC(=O)CCC(NC(=O)Cc1ccc(Oc2nc3ccccc3nc2-c2ccccc2)cc1)C(=O)OCC (stereo unspecified): > 100 µM (inactive)
- CCCCN1C(=O)c2c(Br)sc(Br)c2C1=O: 70.1 µM (inactive)

Proceeding to the next compound to report its GI50.
Noted for CC[C@@]1(O)C(=O)OCc2c1cc1n(c2=O)Cc2c-1nc1ccccc1c2/C=N\NC(=O)C1CCCN1 (stereo partly specified) : its GI50 reads 9.55 µM (inactive)

====

# Tested on: SNB-19
# ASSAY_PROTOCOL: NCI tumour cell line growth inhibition, 48 h
The source made the active and inactive calls. Rule as the data show it: active = GI50 up to about 1.1 µM and inactive = higher.
OBSERVABLE: GI50

• COc1cccc(Cc2cc(=O)c3ccc(C)nc3[nH]2)c1 = > 100 µM (inactive)
• O=C(O)C1CCC(=O)N1C(=O)C(Cl)c1ccccc1 (stereo unspecified) = > 100 µM (inactive)
• c1csc(-c2csc(-c3cccs3)c2)c1 = 32.4 µM (inactive)
• CC(C)C(=O)N[C@@H](C)C(=O)N(Cc1ccc2ccccc2c1)N=O = > 100 µM (inactive)
• Cc1ccc(N2C(=O)C3c4[nH]c5ccccc5c4C4CCC(C(C)(C)C)CC4C3C2=O)cc1 (stereo unspecified) = 8.75 µM (inactive)

GI50 in this record for `CC(C)=CC(=O)CC(=O)C(=O)NCCNC(=O)C(=O)CC(=O)C=C(C)C` : > 50 µM (inactive)

====

Reported GI50 is given for each of the following compounds.
# System: ACHN
# ASSAY_PROTOCOL: NCI tumour cell line growth inhibition, 48 h
Calls of active or inactive are those of the source. Rule as the data show it: active = GI50 up to about 1.1 µM and inactive = higher.

Below are worked cases with known answers.
- NC(=O)NC(CC(=O)O)C(=O)O (stereo unspecified): > 100 µM (inactive)
- CC(C)(C)OC(=O)NC1CC2(C=C(Br)C(=O)C(Br)=C2)OC1=O (stereo unspecified): 4.23 µM (inactive)
- O=C1NC(N2CCOCC2)=N/C1=C\c1cccs1: > 100 µM (inactive)
- O=C1Nc2ccccc2[C@]12C[C@H]2c1ccccn1: > 100 µM (inactive)
- O=S(O)CCCCCSSSCCCCCS(=O)O: > 100 µM (inactive)

Now turn to the next compound.
Lookup result for `O=C(/C=C1/Nc2ccc([N+](=O)[O-])cc2N/C1=C/C(=O)c1ccccc1)c1ccccc1` ; measured GI50: 39.8 µM (inactive)

====

Overview of reported GI50 across a group of molecules:
# System: T47D
# ASSAY_PROTOCOL: NCI tumour cell line growth inhibition, 48 h
Calls of active or inactive are those of the source. Rule as the data show it: active = GI50 up to about 1.1 µM and inactive = higher.

* Clc1ccc(COC(Cn2ccnc2)c2ccc(Cl)cc2Cl)c(Cl)c1 (stereo not given) [MICONAZOLE NITRATE] | 4.57 µM (inactive)

The measured GI50 associated with `O=C1c2ccccc2C(=O)c2c(NC(=O)c3ccc4c5c(ncnc35)-c3ccccc3C4=O)cccc21` reads > 100 µM (inactive)

For `N=C(N)N/N=C/c1c(-c2ccc([N+](=O)[O-])cc2)nc2n1CCS2` the molecule record lists GI50 as 5.13 µM (inactive)

Noted for `O=C1Cc2c(-c3ccccc3)cc(-c3ccc4ccccc4c3)nc2-c2ccccc2N1` : its GI50 reads 18 µM (inactive)

Reported GI50 of `Cc1cnoc1NS(=O)(=O)c1ccc(Nc2nnc(/C=C/c3c(O)ccc4ccccc34)c(=O)n2N)cc1` : 20.1 µM (inactive)

# GI50 (molecule: `COC(=O)c1c(O)ccc2c1c1c(n2Cc2ccccc2)C(=O)c2ccccc2C1=O` ) is 12.9 µM (inactive)

For reference, reported GI50 for `O=C(O)Cc1c(O)ccc2ccccc12` stands at > 100 µM (inactive)

Value of measured GI50 for the entry `O=C(O)CCc1c2ccc(=O)c(O)c-2oc2c(O)c(O)ccc12` : > 100 µM (inactive)

Memo: `COc1cc(C(=O)Oc2c(C(C)=O)sc3c2c(=O)n(-c2ccccc2)c(=S)n3-c2ccccc2)cc(OC)c1OC` , reported GI50: 26.5 µM (inactive)

The molecule listed as O=c1[nH]c(=O)n(C2CC(O)C(CO)O2)cc1C1=NC1 (stereo not given) has a reported GI50 of 35.2 µM (inactive)

====

# Tested on: 786-0
# ASSAY_PROTOCOL: NCI tumour cell line growth inhibition, 48 h
The source made the active and inactive calls. Cut-off read from the data, not from the text of the source: active = GI50 up to about 1.1 µM and inactive = higher. Where a SMILES comes first, the peptide text is derived from it. The star is where a group is joined. Boc = CC(C)(C)OC(=O)*; OBn = c1ccc(CO*)cc1
Assign a class; possible classes are true = active, false = inactive

Answered examples (8):
- O=C(O)Cc1c(O)ccc2ccccc12: false
- CO[C@H]1O[C@@H]2CO[C@@H](c3ccccc3)O[C@H]2[C@@H]2CC=CCC[C@]12O: false
- CC(Nc1ccc(Cl)cc1)c1ccncc1 (centres undefined): false
- CCOC(=O)C1N(S(=O)(=O)c2ccc(C)cc2)CCC12c1ccccc1NC2c1ccc(OC)c(OC)c1 (centres undefined): false
- O=C(c1c(Cl)cc(Cl)cc1Cl)N(Cc1cccnc1)C(=S)N(Cc1cccnc1)C(=O)c1c(Cl)cc(Cl)cc1Cl: false
- Nc1nc(=S)n(-c2ccc(Cl)cc2)c2nc3ccccc3cc12: false
- OCCSCC/C(=N\N=C(/CCSCCO)c1ccccc1)c1ccccc1: false
- CC(=O)OC(Cc1cc(C=C(C(F)(F)F)C(F)(F)F)cc(C)n1)(C(F)(F)F)C(F)(F)F: true

Continue with the next compound.
What call does the record list for CC(C)CC(NC(=O)OC(C)(C)C)C(=O)N1CCCC1C(=O)OCc1ccccc1 (stereo not drawn) (Boc-Leu-Pro-OBn; configuration not given here) ?
false

====

# System: A498
# ASSAY_PROTOCOL: NCI tumour cell line growth inhibition, 48 h
Activity calls are given as the source filed them. Cut-off read from the data, not from the text of the source: active = GI50 up to about 1.1 µM and inactive = higher.
Quick reference for GI50 among some molecules

Look over these answered cases.
- COC(=O)CCC(=O)c1ccc2c(c1)CCC2: > 100 µM (inactive)
- O=S(O)CCCCCSSSCCCCCS(=O)O: > 100 µM (inactive)
- N#Cc1c(N)[nH]c2ccc(Sc3ccccc3)cc12: 0.196 µM (active)
- CC(=O)O[C@H]1C(=O)[C@@]2(C)C(C(OC(=O)c3ccccc3)[C@]3(O)CC(OC(=O)C(O)C(NC(=O)c4ccccc4)c4ccc(F)cc4)C(C)=C1C3(C)C)[C@]1(OC(C)=O)CO[C@@H]1C[C@@H]2O (some centres not stated): < 0.001 µM (active)
- COC1=Nc2ccccc2S(=O)(=O)C=C1: 16.8 µM (inactive)

For this molecule ( `CC(C)C(=O)/C=C/c1ccc(Cl)cc1Cl` ), measured GI50 is 17.9 µM (inactive)

GI50 reading for `c1cc(-c2ccc(Oc3ccc(-c4ccncc4)cc3)cc2)ccn1` : 6.76 µM (inactive)

====

# maps each entry to its GI50
# System: PC-3
# ASSAY_PROTOCOL: NCI tumour cell line growth inhibition, 48 h
The source made the active and inactive calls. No stated cut-off is given here; in the data, active = GI50 up to about 1.1 µM and inactive = higher.

These recorded examples may help you get a feel for the data.
* COc1cc2c(cc1OCCCOc1cc3c(cc1OC)C(=O)N1CCC[C@H]1CN3)N=C[C@@H]1CCCN1C2=O | 0.279 µM (active)
* O=C1Cc2c(-c3ccccc3)cc(-c3ccc4ccccc4c3)nc2-c2ccccc2N1 | 15.7 µM (inactive)
* C1CSCCSCCCSC2CCCCC2SC1 (stereo unspecified) | 68.2 µM (inactive)
* NC(CCCCO)C(=O)O (stereo unspecified) | > 100 µM (inactive)
* CC[C@@H]([C@H](O)c1ccccc1Cl)[N+](=O)[O-] | 61.4 µM (inactive)
* COc1ccc(N2C(=O)C3c4[nH]c5ccc(C)cc5c4C4CCC(C(C)C)CC4C3C2=O)cc1 (stereo unspecified) | > 100 µM (inactive)
* NC(=O)NC(CC(=O)O)C(=O)O (stereo unspecified) | > 100 µM (inactive)
* CC1=NN(c2nc(N)nc(/C(C#N)=C\c3csc([N+](=O)[O-])c3)n2)C(C)(C)C1 | 20.6 µM (inactive)
* O=C1CC2CC(CC3(CO3)C2)C1F (stereo unspecified) | > 100 µM (inactive)
* CC(C)(C)OC(=O)NC1CC2(C=C(Br)C(=O)C(Br)=C2)OC1=O (stereo unspecified) | 13.9 µM (inactive)

Now examine the next entry.
Field GI50 (system: PC-3) for entry `CCCCN1C(=O)c2c(Br)sc(Br)c2C1=O` = 28.8 µM (inactive)
